System: A498 renal
Test: NCI tumour cell line growth inhibition, 48 h; in the data active means GI50 below about 0.43 µM; inactive means the rest
Would you mind answering with one of these outcomes? active, inactive

Solved entries (count: 5):
Cc1ccc(-n2c(-c3cc4c([nH]c5ccccc54)c(-c4cccc(O)c4)n3)n[nH]c2=S)cc1; active
C=C1C(=O)O[C@H]2[C@H]1CC/C(COC(=O)NCc1c[nH]c3ccc(F)cc13)=C\CC[C@@]1(C)O[C@@H]21; inactive
CC(C)N(Cc1ccc(F)cc1)c1ccc(CO)c(Cl)c1; active
N#Cc1c(NC(=O)c2ccccc2F)sc2c1CCCC2; inactive
O=C(O)CCCc1ccccc1; inactive

API: the following record is the query input.
I'd appreciate the recorded outcome for NCc1ccc(-c2nc(-c3ccc(Cl)c(O)c3)c(-c3ccncc3)[nH]2)cc1 from this test.
inactive
